Reported glycan array binding signal (z-score) values follow for various binders
target: GalNAc(b1-3)Gal(a1-6)Gal(b1-4)Glc; test: glycan array binding signal (z-score within array); higher = stronger binding; conditions: glycan notation: IUPAC condensed, linker removed
The sample as a whole holds a higher share of the strongest signals than the screen did.
reported_endpoint: glycan array binding signal (z-score)

binder="MGL (Homo sapiens), Q8IUN9 (protein) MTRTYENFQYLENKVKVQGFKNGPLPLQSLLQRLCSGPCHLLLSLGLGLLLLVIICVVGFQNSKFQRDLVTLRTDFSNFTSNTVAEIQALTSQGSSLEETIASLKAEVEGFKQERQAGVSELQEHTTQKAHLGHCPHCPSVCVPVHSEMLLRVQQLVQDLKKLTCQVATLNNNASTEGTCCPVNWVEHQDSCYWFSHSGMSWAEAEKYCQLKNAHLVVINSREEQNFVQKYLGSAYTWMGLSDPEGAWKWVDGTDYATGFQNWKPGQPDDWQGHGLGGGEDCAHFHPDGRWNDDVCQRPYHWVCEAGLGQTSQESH" val=3.77
binder="SBD-G4S3-Fc (protein) MASIPSSASVQLDSYNYDGSTFSGKIYVKNIAYSKKVTVVYADGSDNWNNNGNIIAASFSGPISGSNYEYWTFSASVKGIKEFYIKYEVSGKTYYDNNNSANYQVSTGGGGSGGGGSGGGGSEFVPRDCGCKPCICTVPEVSSVFIFPPKPKDVLTITLTPKVTCVVVDISKDDPEVQFSWFVDDVEVHTAQTQPREEQFNSTFRSVSELPIMHQDWLNGKEFKCRVNSAAFPAPIEKTISKTKGRPKAPQVYTIPPPKEQMAKDKVSLTCMITDFFPEDITVEWQWNGQPAENYKNTQPIMDTDGSYFVYSKLNVQKSNWEAGNTFTCSVLHEGLHNHHTEKSLSHSPGAA" val=-0.468
